Please provide measured log10 IC50 for the entries that follow.
Note: values are log10 of IC50 expressed in nM.

Query: Find log10 IC50 (Erk2 (Homo sapiens)) for the entry `CCNC(=O)Nc1ccc2ncc(Nc3cnc4ccccc4c3)nc2n1`
Reply: 3.90

Query: Find log10 IC50 (Erk2 (Homo sapiens)) for the entry `CCNC(=O)Nc1ccc2ncc(-c3cc(Cl)c(O)c(OC)c3)nc2n1`
Reply: 2.28

Query: Find log10 IC50 (Erk2 (Homo sapiens)) for the entry CCNC(=O)Nc1ccc2ncc(-c3ccc(O)c(OC)c3)nc2n1 [Compound 124]
Reply: 1.79

Query: Find log10 IC50 (Erk2 (Homo sapiens)) for the entry `CCNC(=S)Nc1ccc2ncc(-c3ccc(O)cc3)nc2n1`
Reply: 2.98

Query: Find log10 IC50 (Erk2 (Homo sapiens)) for the entry `CCNC(=O)Nc1ccc2ncc(-c3cccc(C(=O)O)c3)nc2n1`
Reply: 3.28

Query: Find log10 IC50 (Erk2 (Homo sapiens)) for the entry `CCNC(=O)Nc1ccc2ncc(Nc3ccn(C)n3)nc2n1`
Reply: 4.14

Query: Find log10 IC50 (Erk2 (Homo sapiens)) for the entry CCNC(=O)Nc1ccc2ncc(-c3ccc(O)c(OC)c3)nc2n1 [Compound 193]
Reply: 2.33

----------
Please provide measured IC50 for the entries that follow.
Tested on: Jnk1 + Jnk2
procedure_details: Cell-free kinase assay (ALPHA technology), Jnk1 + Jnk2
Assay type: biochemical, human
test_parameters: 10 μM ATP
Provide the reading as a plain figure in µM.

Query: Find IC50 (Jnk1 + Jnk2) for the entry `CCNC(=O)Nc1ccc2ncc(-c3cnn(C)c3)nc2n1`
Reply: 2.9

Query: Find IC50 (Jnk1 + Jnk2) for the entry `C=CCNC(=S)Nc1ccc2ncc(-c3ccc(O)cc3)nc2n1`
Reply: 21.8

Query: Find IC50 (Jnk1 + Jnk2) for the entry `CCNC(=O)Nc1ccc2ncc(Nc3cc(Cl)c(O)c(Cl)c3)nc2n1`
Reply: 4.3

Query: Find IC50 (Jnk1 + Jnk2) for the entry `CCNC(=O)Nc1ccc2ncc(Nc3ccn(C)n3)nc2n1`
Reply: 21.9

Query: Find IC50 (Jnk1 + Jnk2) for the entry `CCNC(=O)Nc1ccc2ncc(Nc3cnc4ccccc4c3)nc2n1`
Reply: 8.1

Query: Find IC50 (Jnk1 + Jnk2) for the entry `CCNC(=O)Nc1ccc2ncc(-c3ccc(N)c(OC)c3)nc2n1`
Reply: 2.8

Query: Find IC50 (Jnk1 + Jnk2) for the entry CCNC(=O)Nc1ccc2ncc(-c3ccc(O)c(OC)c3)nc2n1 [Compound 193]
Reply: 1.5

Query: Find IC50 (Jnk1 + Jnk2) for the entry `CCNC(=O)Nc1ccc2ncc(-c3ccc(O)cc3)nc2n1`
Reply: 5.5

Query: Find IC50 (Jnk1 + Jnk2) for the entry `CCNC(=O)Nc1ccc2ncc(Nc3ccc(C)cn3)nc2n1`
Reply: 27.1

Query: Find IC50 (Jnk1 + Jnk2) for the entry `CCNC(=O)Nc1ccc2ncc(Nc3ccc(C#N)cc3)nc2n1`
Reply: 1.8

Query: Find IC50 (Jnk1 + Jnk2) for the entry `CCNC(=O)Nc1ccc2ncc(Nc3ccc(OC)c(Cl)c3)nc2n1`
Reply: 3.9

Query: Find IC50 (Jnk1 + Jnk2) for the entry `CCNC(=O)Nc1ccc2ncc(-c3c(C)n[nH]c3C)nc2n1`
Reply: 4

Query: Find IC50 (Jnk1 + Jnk2) for the entry CCNC(=O)Nc1ccc2ncc(-c3cc(Cl)c(O)c(OC)c3)nc2n1 [Compound 175]
Reply: 2.5

Query: Find IC50 (Jnk1 + Jnk2) for the entry `CCNC(=O)Nc1ccc2ncc(-c3ccc(Cl)cc3OC)nc2n1`
Reply: 1.4

Query: Find IC50 (Jnk1 + Jnk2) for the entry `COc1cc(-c2cnc3ccc(NC(=O)NCCCCO)nc3n2)ccc1O`
Reply: 2.5

Source: patent US8937068B2
